- System Under Test: T1, human CD28-Fc chimera (R&D, Cat. No. 342-CD) (human, UniProt P10747 19-152)
- T1 construct: Bought reagent; also called recombinant human CD28-Fc fusion protein; recombinant CD28 fused to an Fc backbone; Fc part of the bought chimera not given
- Procedure Text: SPR (Biacore), CD28-Fc immobilized on CM5 chip, VHH as analyte, multi-cycle kinetics, 1:1 model
Assay Readout: pKd
One number for each entry, as −log10 of the molar value.

Worked set:
{"columns": ["Binder", "Assay Value"],
 "data": [
  ["VHH 10E1 (VHH, also called 10E01) VHH: EVQLVESGGGLVQAGESLRLSCAASGSIASIKTMAWYRQAPGSQRELVAAINYIKEIYYADSVKGRFTISRDNAKTTVYLQMNSLRPEDTAVYYCVVDVTKEDYWYWGQGTQVTVSS", 10.19],
  ["VHH 11E11 (VHH) VHH: EVQLVESGGGLVQAGESLRLSCAASGSIASINSMAWYRQAPGSQRELVAAISNAREVYYADSVKGRFTISRDNAKTTVYLQMNSLRPEDTAVYYCVVDVYFQEYWYWGQGTQVTVSS", 9.45]
]}

Qu. // lookup pKd for VHH 9A7 (VHH, also called 9A07) VHH: EVQLVESGGGLVQAGESLRLSCAASGSIASINSMGWYRQAPGSQRELVAAISDRSEKYYADSVKGRFTISRDNAKTTVYLQMNSLRPEDTAVYYCVVDHHHSDWWTWGQGTQVTVSS
Ans. 9.72
